- PROTOCOL_TEXT: Pharmacokinetics of Compound 22 in plasma and brain (UHPLC-TOF)
- Assay type: in vivo, male CD1 mice
- EXPERIMENTAL_PARAMETERS: male, CD1, mouse, brain, ip, 33.3 mg/kg body weight; i.p. administration and formulation; read-out: Brain exposure Cmax

COMPOUND: Cc1[nH]c2ccc(C(=O)NCCN(C(C)C)C(C)C)cc2c1C [Compound 22]
Cmax / µM: 5.56

====

- TARGET_OF_ASSAY: Exon1 Q46 (Homo sapiens, UniProt P42858, INS38QQQQQQQQQQQQQQQQQQQQQQQQQ)
- Sequence (P42858 with tags, fused parts or gaps with the stated changes): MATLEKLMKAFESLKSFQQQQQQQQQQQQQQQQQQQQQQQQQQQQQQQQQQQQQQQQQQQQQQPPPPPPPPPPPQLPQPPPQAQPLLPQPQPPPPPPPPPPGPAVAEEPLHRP
- PROTOCOL_TEXT: Circular dichroism study
- Format: binding
- EXPERIMENTAL_PARAMETERS: Exon1 Q46
pKd: −log10 of the molar value.
REPORTED_ENDPOINT: pKd

COMPOUND: Cc1[nH]c2ccc(C(=O)NC3CCC(N(C)C)CC3)cc2c1C (stereo not drawn)
VALUE_REPORTED: 7.15

COMPOUND: Cc1[nH]c2ccc(C(=O)NCCN(C(C)C)C(C)C)cc2c1C
VALUE_REPORTED: 6.15

COMPOUND: CCc1c(C)[nH]c2ccc(C(=O)NCCN(CC)CC)cc12
VALUE_REPORTED: 7.22
